Form field: TGI (one value per entry).
System: SW-620 colon
procedure.details: NCI tumour cell line growth inhibition, 48 h

- compound: "O=S(=O)(O)CCCC1S(=O)(=O)OCCOS1(=O)=O"
  TGI: "> 100 µM"
- compound: "N/C(=C\\C(=O)n1nc(-c2ccccc2)cc1N)c1ccccc1"
  TGI: "17.2 µM"
- compound: "CC1=NNC(=O)C1C1CC(c2c[nH]c3ccccc23)=NNC1=S (stereo unspecified)"
  TGI: "> 100 µM"
- compound: "Nc1ccc2nc(NCc3ccc(F)cc3)cnc2c1"
  TGI: "> 100 µM"
- compound: "O=C1NC(=O)C(CC(C(=O)C(=O)Nc2ccccc2Cl)C(=O)c2ccc3ccccc3c2)C(=O)N1 (stereo unspecified)"
  TGI: "> 100 µM"
- compound: "Cc1ccccc1C1OC(=O)c2ccccc21 (stereo unspecified)"
  TGI: "> 100 µM"

---

Test system: SK-MEL-28 melanoma
procedure.details: NCI tumour cell line growth inhibition, 48 h
metric: TGI

- compound: "Nc1nc2sc3ccccc3c(=O)n2n1"
  value.observed: "> 100 µM"
- compound: "C1=Nc2ccc(cc2)N=Cc2ccc(cc2)OCc2cccc(n2)COc2ccc1cc2"
  value.observed: "> 100 µM"
- compound: "COC(=O)C1CCC(Nc2ccc(C)cc2C)=N1 (stereo not drawn)"
  value.observed: "> 100 µM"
- compound: "Cc1cc(NCCCNc2ccnc3cc(Cl)ccc23)nc(N2CCN(C)CC2)n1"
  value.observed: "3.67 µM"
- compound: "CCOc1ccc(Nc2nc3c(s2)C(=O)c2ccccc2C3=O)cc1"
  value.observed: "36.1 µM"
- compound: "N#CC(c1nc2ccccc2s1)c1ncnc(Cl)c1[N+](=O)[O-] (stereo not drawn)"
  value.observed: "38.7 µM"
- compound: "O=[N+]([O-])c1ccc2[nH]nc(OCc3ccccn3)c2c1"
  value.observed: "> 100 µM"
- compound: "Oc1ccc(CN2CCC(N3CCOCC3)CC2)c2cccnc12"
  value.observed: "> 100 µM"
- compound: "O=C(C=Nc1ccccc1C(=O)[O-])c1cccs1.O=C(C=Nc1ccccc1C(=O)[O-])c1cccs1.[Co+2]"
  value.observed: "> 100 µM"
- compound: "CC(=O)O[C@]12CCCCC1C1(O)C(O)CCCCC12 (stereo partly drawn)"
  value.observed: "> 100 µM"
- compound: "Cn1c(N)c(C(N)=O)[nH]c1=S"
  value.observed: "> 100 µM"
- compound: "COc1cc2c(cc1OCCCCCOc1cc3c(cc1OC)C(=O)N1CC(F)C[C@H]1C=N3)N=C[C@@H]1CC(F)CN1C2=O (stereo partly drawn)"
  value.observed: "8.45 µM"
- compound: "C=C(C)C1Cc2c(cc(OC)c3c(=O)c4cccc(O)c4oc23)O1 (stereo not drawn)"
  value.observed: "72 µM"
- compound: "Nc1ncnc2c1ncn2Cc1ccc(C23CC4CC(CC(C4)C2)C3)c(OCc2cc(F)c(F)cc2F)c1"
  value.observed: "> 100 µM"
- compound: "CC1(C)C2CCC(CN)(C2)C1O (stereo not drawn)"
  value.observed: "> 100 µM"
- compound: "C/C=C1/CN2CCc3c([nH]c4ccccc34)[C@@H]2C[C@@H]1Cc1[nH]ccc2c1[nH]c1cc(=O)ccc12"
  value.observed: "4.5 µM"
- compound: "C#CCn1ncc2c(SC)ncnc21"
  value.observed: "> 100 µM"
- compound: "Clc1cc2c(cc1Cl)Oc1cc(Cl)c(Cl)cc1O2"
  value.observed: "> 0.625 µM"
- compound: "Clc1ccc(/C=C/c2cc(N3CCOCC3)c3cc(Cl)c(Cl)cc3n2)cc1"
  value.observed: "> 100 µM"
- compound: "COC(=O)C1=C(C(=O)OC)C(Cc2ccccc2)(OO)OC1=O (stereo not drawn)"
  value.observed: "> 100 µM"
- compound: "COc1cc(/C=N/n2c(Cc3ccc(Cl)cc3)n[nH]c2=O)cc(OC)c1OC"
  value.observed: "> 100 µM"
- compound: "S=c1nc(Cc2ccc(Cl)cc2)[nH][nH]1"
  value.observed: "> 100 µM"
- compound: "CC1=C(/C=C/C(=O)O)C(C)(C)CCC1"
  value.observed: "> 100 µM"
